System: K86415-001-R-J1-PDC complex spheroids, viability
Assay: Anticancer human tumor K86415-001-R-J1-PDC patient-derived lung adenocarcinoma cell line growth inhibition [RAS]
Conditions: second compound 0.01 µM; first compound 0.1 µM; stronger effect = lower value

{"MOLECULE": "NC1c2ccccc2OC12CCN(c1cnc3c(N4CCCc5ncccc54)n[nH]c3n1)CC2 (stereo not given) + C=CC(=O)N1CCN(c2nc(OCC3CCCN3C)nc3c(F)c(-c4nc(N)cc(C)c4C(F)(F)F)c(Cl)cc23)C(C)C1", "OUTPUT UNIT": "%", "viability, T/C": 5.33}
{"MOLECULE": "CC(Nc1ccc2c(c1)OCCn1cc(N3C(=O)OCC3C(F)F)nc1-2)C(N)=O (stereo not given) + C=CC(=O)N1CCN(c2nc(OCC3CCCN3C)nc3c(F)c(-c4nc(N)cc(C)c4C(F)(F)F)c(Cl)cc23)C(C)C1", "OUTPUT UNIT": "%", "viability, T/C": 8.09}
{"MOLECULE": "C[C@@H](NC(=O)c1ncnc(N)c1Cl)c1ncc(C(=O)Nc2cc(C(F)(F)F)c(Cl)cn2)s1 + C=CC(=O)N1CCN(c2nc(OCC3CCCN3C)nc3c(F)c(-c4nc(N)cc(C)c4C(F)(F)F)c(Cl)cc23)C(C)C1", "OUTPUT UNIT": "%", "viability, T/C": 14.6}
{"MOLECULE": "CC(C)n1nc(-c2ccc3oc(N)nc3c2)c2c(N)ncnc21 + C=CC(=O)N1CCN(c2nc(OCC3CCCN3C)nc3c(F)c(-c4nc(N)cc(C)c4C(F)(F)F)c(Cl)cc23)C(C)C1", "OUTPUT UNIT": "%", "viability, T/C": 6}
{"MOLECULE": "O=C(c1ccc(F)c(F)c1Nc1ccc(I)cc1F)N1CC(O)([C@@H]2CCCCN2)C1 + C=CC(=O)N1CCN(c2nc(OCC3CCCN3C)nc3c(F)c(-c4nc(N)cc(C)c4C(F)(F)F)c(Cl)cc23)C(C)C1", "OUTPUT UNIT": "%", "viability, T/C": 7.21}

====

System: K86415-001-R-J1-PDC complex spheroids, viability
Test: Anticancer human tumor K86415-001-R-J1-PDC cell line growth inhibition [RAS];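 also: spheroids exposed to agents for seven days before readout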
Conditions: second compound 0.316 µM; first compound 0.0316 µM; stronger effect = lower value
The following compounds are listed with their measured viability, T/C values.

{"COMPOUND": "CCN1CCN(Cc2ccc(Nc3ncc(F)c(-c4cc(F)c5nc(C)n(C(C)C)c5c4)n3)nc2)CC1 + C#Cc1c(F)ccc2cc(O)cc(-c3ncc4c(N5CC6CCC(C5)N6)nc(OCC56CCCN5CC(F)C6)nc4c3F)c12", "viability, T/C / %": 67.1}
{"COMPOUND": "NC1c2ccccc2OC12CCN(c1cnc3c(N4CCCc5ncccc54)n[nH]c3n1)CC2 (stereo not given) + C#Cc1c(F)ccc2cc(O)cc(-c3ncc4c(N5CC6CCC(C5)N6)nc(OCC56CCCN5CC(F)C6)nc4c3F)c12", "viability, T/C / %": 28.2}
{"COMPOUND": "CC(C)n1nc(-c2ccc3oc(N)nc3c2)c2c(N)ncnc21 + C#Cc1c(F)ccc2cc(O)cc(-c3ncc4c(N5CC6CCC(C5)N6)nc(OCC56CCCN5CC(F)C6)nc4c3F)c12", "viability, T/C / %": 67.5}
{"COMPOUND": "CC(Nc1ccc2c(c1)OCCn1cc(N3C(=O)OCC3C(F)F)nc1-2)C(N)=O (stereo not given) + C#Cc1c(F)ccc2cc(O)cc(-c3ncc4c(N5CC6CCC(C5)N6)nc(OCC56CCCN5CC(F)C6)nc4c3F)c12", "viability, T/C / %": 84.9}
{"COMPOUND": "CCN1CCN(Cc2ccc(Nc3ncc(F)c(-c4cc(F)c5nc(C)n(C(C)C)c5c4)n3)nc2)CC1 + C=CC(=O)N1CCN(c2nc(OCC3CCCN3C)nc3c(F)c(-c4nc(N)cc(C)c4C(F)(F)F)c(Cl)cc23)C(C)C1", "viability, T/C / %": 9.15}

====

Tested on: K86415-001-R-J1-PDC complex spheroids, viability
Test: Anticancer human tumor K86415-001-R-J1-PDC cell line growth inhibition [RAS];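 also: spheroids exposed to agents for seven days before readout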
Settings: second compound 0.3 µM; first compound 10 µM; stronger effect = lower value
Source text: RAS pathway inhibitors in Combinations in Complex Spheroids A high-throughput screen of multi-cell type tumor spheroids was designed to identify active combinations of RAS pathway inhibitors and targeted small molecules. Complex spheroids include a stromal component modeled by human endothelial cells (HUVEC) and fibroblasts modeled by human mesenchymal stem cells (MSCs). […] Compounds. […] If the clinical Cmax for an agent had not been determined, the highest concentration tested was 10 microM. […]
The following compounds are listed with their measured viability, T/C values.

{"COMPOUND": "C[C@@H](NC(=O)c1ncnc(N)c1Cl)c1ncc(C(=O)Nc2cc(C(F)(F)F)c(Cl)cn2)s1 + CCn1c(-c2cc(N3CCN(C)CC3)cnc2C(C)OC)c2c3cc(ccc31)-c1csc(n1)CC(NC(=O)C1CC1C)C(=O)N1CCCC(N1)C(=O)OCC(C)(C)C2", "TARGET DESC": "K86415-001-R-J1-PDC complex spheroids, viability", "viability, T/C [%]": 4.26}
{"COMPOUND": "CC1(O)CCCC1n1c(=O)c(C(F)F)cc2cnc(NC3CCN(S(C)(=O)=O)CC3)nc21 (configuration not stated) + CCn1c(-c2cccnc2C(C)OC)c2c3cc(ccc31)N1CCOC(CC(NC(=O)C(C(C)C)N(C)C(=O)C3(F)CCN(C(=O)C#CC(C)(C)N(C)C)CC3)C(=O)N3CCCC(N3)C(=O)OCC(C)(C)C2)C1", "TARGET DESC": "K86415-001-R-J1-PDC complex spheroids, viability", "viability, T/C [%]": 3.94}

====

The following compounds are listed with their measured IC50 values.
Test system: K86415-001-R-J1-PDC complex spheroids, viability
Assay: Anticancer human tumor K86415-001-R-J1-PDC cell line growth inhibition [RAS];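 also: spheroids exposed to agents for seven days before readout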
Details: curve of first compound; second compound 3.16 µM

{"COMPOUND": "CC(=O)OC12COC1CC(O)C1(C)C(=O)C(O)C3=C(C)C(OC(=O)C(O)C(NC(=O)OC(C)(C)C)c4ccccc4)CC(O)(C(OC(=O)c4ccccc4)C21)C3(C)C (centres undefined) + C#Cc1c(F)ccc2cc(O)cc(-c3ncc4c(N5CC6CCC(C5)N6)nc(OCC56CCCN5CC(F)C6)nc4c3F)c12", "IC50": "< 31.6 nM"}
{"COMPOUND": "NC1c2ccccc2OC12CCN(c1cnc3c(N4CCCc5ncccc54)n[nH]c3n1)CC2 (centres undefined) + C#Cc1c(F)ccc2cc(O)cc(-c3ncc4c(N5CC6CCC(C5)N6)nc(OCC56CCCN5CC(F)C6)nc4c3F)c12", "IC50": "< 31.6 nM"}
{"COMPOUND": "C=CC(=O)Nc1cc(Nc2nccc(-c3cn(C)c4ccccc34)n2)c(OC)cc1N(C)CCN(C)C + C#Cc1c(F)ccc2cc(O)cc(-c3ncc4c(N5CC6CCC(C5)N6)nc(OCC56CCCN5CC(F)C6)nc4c3F)c12", "IC50": "< 3.16 nM"}
{"COMPOUND": "C=CC(=O)N1CCN(c2nc(OCC3CCCN3C)nc3c(F)c(-c4nc(N)cc(C)c4C(F)(F)F)c(Cl)cc23)C(C)C1 (centres undefined) + C#Cc1c(F)ccc2cc(O)cc(-c3ncc4c(N5CC6CCC(C5)N6)nc(OCC56CCCN5CC(F)C6)nc4c3F)c12", "IC50": "< 3.16 nM"}

====

Test system: K86415-001-R-J1-PDC complex spheroids, viability
Test: Anticancer human tumor K86415-001-R-J1-PDC cell line growth inhibition [RAS]; active = viability on the fitted dose curve at most 10% of control; inactive = the rest;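 also: spheroids exposed to agents for seven days before readout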
Details: second compound 0.03 µM; first compound 0.01 µM
Labels: y = active, n = inactive

{"COMPOUND": "Nc1ccn(C2OC(CO)C(O)C2(F)F)c(=O)n1 (centres undefined) + CCn1c(-c2cccnc2C(C)OC)c2c3cc(ccc31)N1CCOC(CC(NC(=O)C(C(C)C)N(C)C(=O)C3(F)CCN(C(=O)C#CC(C)(C)N(C)C)CC3)C(=O)N3CCCC(N3)C(=O)OCC(C)(C)C2)C1", "CLASS ASSIGNMENT": "n"}
{"COMPOUND": "C=CC(=O)N1CCN(c2nc(OCC3CCCN3C)nc3c(F)c(-c4nc(N)cc(C)c4C(F)(F)F)c(Cl)cc23)C(C)C1 (centres undefined) + CCn1c(-c2cc(N3CCN(C)CC3)cnc2C(C)OC)c2c3cc(ccc31)-c1csc(n1)CC(NC(=O)C1CC1C)C(=O)N1CCCC(N1)C(=O)OCC(C)(C)C2", "CLASS ASSIGNMENT": "y"}
{"COMPOUND": "CC(C)n1nc(-c2ccc3oc(N)nc3c2)c2c(N)ncnc21 + CCn1c(-c2cccnc2C(C)OC)c2c3cc(ccc31)N1CCOC(CC(NC(=O)C(C(C)C)N(C)C(=O)C3(F)CCN(C(=O)C#CC(C)(C)N(C)C)CC3)C(=O)N3CCCC(N3)C(=O)OCC(C)(C)C2)C1", "CLASS ASSIGNMENT": "y"}
{"COMPOUND": "C=CC(=O)N1CCN(c2nc(OCC3CCCN3C)nc3c(F)c(-c4nc(N)cc(C)c4C(F)(F)F)c(Cl)cc23)C(C)C1 (centres undefined) + CCn1c(-c2cccnc2C(C)OC)c2c3cc(ccc31)N1CCOC(CC(NC(=O)C(C(C)C)N(C)C(=O)C3(F)CCN(C(=O)C#CC(C)(C)N(C)C)CC3)C(=O)N3CCCC(N3)C(=O)OCC(C)(C)C2)C1", "CLASS ASSIGNMENT": "n"}
